Catalogue of molecules with associated melting point

Consider the worked cases shown below.
Cc1cc(CC(=O)Nc2ccc(S(N)(=O)=O)cc2)cc(Oc2cc(Cl)cc(C#N)c2)c1 [Compound I-141] :: 183.9 to 185.2 °C
Cc1cc(S(=O)(=O)NCCN2CCOCC2)ccc1NC(=O)Cc1ccc(C)c(Oc2cc(Cl)cc(C#N)c2)c1 [Compound I-118] :: 177 to 181 °C
Cc1cc(CC(=O)Nc2ccccc2Cl)cc(C(=O)c2ccc(Cl)cc2)c1 [Compound I-258] :: 134.7 to 135.5 °C
COc1ccc(CC(=O)Nc2ccc(S(N)(=O)=O)cc2C)cc1C(=O)c1cc(Br)ccc1Cl [Compound I-264] :: 177 to 177.9 °C
Cc1cc(S(=O)(=O)CCN)ccc1NC(=O)Cc1ccc(C)c(Oc2cc(Cl)cc(C#N)c2)c1 [Compound I-154] :: 92.4 to 95.5 °C

Item COc1cc(CC(=O)Nc2ccc(S(N)(=O)=O)cc2)cc(Oc2cc(C#N)ccc2Cl)c1 [Compound I-102] has what recorded melting point?
180.5 to 181.3 °C

Item COc1cc(CC(=O)Nc2ccc(S(N)(=O)=O)cc2C)cc(Oc2cc(C#N)ccc2Cl)c1 [Compound I-103] has what recorded melting point?
179.8 to 184 °C
